- protocol-notes: Liver microsomes stability, mouse
- measurement-context: Mouse, With NADPH, 60 min

| compound | Remaining Percentage (%) 60 min |
| --- | --- |
| [2H]C1([2H])CC(c2c[nH]c3cccc(OCc4ccccc4)c23)C([2H])([2H])N1 (stereo not shown) [Compound I-35] | 70.91% |
| [2H]C([2H])N1CCC(c2c[nH]c3cccc(O)c23)C1 (stereo not shown) [Compound I-32] | 84.91% |
| [2H]C1([2H])CC(c2c[nH]c3cccc(O)c23)C([2H])([2H])N1C (stereo not shown) [Compound I-34] | 63.66% |
| [2H]C1([2H])CC(c2c[nH]c3cccc(O)c23)C([2H])([2H])N1 (stereo not shown) [Compound I-33] | 103.45% |
| CN(C)CCc1c[nH]c2cccc(O)c12 [Psilocin, 4-hydroxy-N,N-dimethyltryptamine, reference compound] | 74.57% |
| [2H]C1([2H])CC(c2c[nH]c3cccc(OCc4ccccc4)c23)C([2H])([2H])N1C (single isomer, unassigned) [Compound I-37] | 37.75% |
| [2H]C([2H])N1CCC(c2c[nH]c3cccc(OCc4ccccc4)c23)C1 (single isomer, unassigned) [Compound I-36] | 4.62% |

====

- protocol-notes: Liver microsomes stability, human
- measurement-context: Human, Without NADPH, 0 min
test-readout: Remaining Percentage (%) 0 min

| compound | test-readout | measured-number |
| --- | --- | --- |
| CN(C)CCc1c[nH]c2cccc(O)c12 [Psilocin, 4-hydroxy-N,N-dimethyltryptamine, reference compound] | Remaining Percentage (%) 0 min | 100.00 |
| [2H]C1([2H])CC(c2c[nH]c3cccc(O)c23)C([2H])([2H])N1C (stereo not shown) [Compound I-34] | Remaining Percentage (%) 0 min | 100.00 |
| [2H]C1([2H])CC(c2c[nH]c3cccc(OCc4ccccc4)c23)C([2H])([2H])N1C (single isomer, unassigned) [Compound I-37] | Remaining Percentage (%) 0 min | 100.00 |
| [2H]C1([2H])CC(c2c[nH]c3cccc(OCc4ccccc4)c23)C([2H])([2H])N1 (stereo not shown) [Compound I-35] | Remaining Percentage (%) 0 min | 100.00 |
| [2H]C([2H])N1CCC(c2c[nH]c3cccc(O)c23)C1 (stereo not shown) [Compound I-32] | Remaining Percentage (%) 0 min | 100.00 |
| [2H]C([2H])N1CCC(c2c[nH]c3cccc(OCc4ccccc4)c23)C1 (single isomer, unassigned) [Compound I-36] | Remaining Percentage (%) 0 min | 100.00 |
| [2H]C1([2H])CC(c2c[nH]c3cccc(O)c23)C([2H])([2H])N1 (stereo not shown) [Compound I-33] | Remaining Percentage (%) 0 min | 100.00 |

====

- protocol-notes: Liver microsomes stability, rat
- measurement-context: Rat liver microsomes, with NADPH

| compound | Predicted hepatic CL (mL/min/kg) |
| --- | --- |
| [2H]C1([2H])CC(c2c[nH]c3cccc(OCc4ccccc4)c23)C([2H])([2H])N1 (stereo not shown) | 17.94 |
| [2H]C([2H])N1CCC(c2c[nH]c3cccc(O)c23)C1 (stereo not shown) | 0.96 |
| [2H]C([2H])N1CCC(c2c[nH]c3cccc(OCc4ccccc4)c23)C1 (single isomer, unassigned) | 33.57 |
| [2H]C1([2H])CC(c2c[nH]c3cccc(O)c23)C([2H])([2H])N1 (stereo not shown) | 15.15 |

====

- protocol-notes: Liver microsomes stability, mouse
- measurement-context: Mouse liver microsomes, with NADPH
Labelling: Predicted hepatic CL reported below 30 mL/min/kg becomes true; at or above becomes false.

| compound | class-label |
| --- | --- |
| [2H]C1([2H])CC(c2c[nH]c3cccc(O)c23)C([2H])([2H])N1 (stereo not shown) [Compound I-33] | true |
| [2H]C([2H])N1CCC(c2c[nH]c3cccc(OCc4ccccc4)c23)C1 (single isomer, unassigned) [Compound I-36] | false |
| [2H]C1([2H])CC(c2c[nH]c3cccc(O)c23)C([2H])([2H])N1C (stereo not shown) [Compound I-34] | false |
| [2H]C1([2H])CC(c2c[nH]c3cccc(OCc4ccccc4)c23)C([2H])([2H])N1 (stereo not shown) [Compound I-35] | false |
| [2H]C1([2H])CC(c2c[nH]c3cccc(OCc4ccccc4)c23)C([2H])([2H])N1C (single isomer, unassigned) [Compound I-37] | false |
| CN(C)CCc1c[nH]c2cccc(O)c12 [Psilocin, 4-hydroxy-N,N-dimethyltryptamine, reference compound] | true |
| [2H]C([2H])N1CCC(c2c[nH]c3cccc(O)c23)C1 (stereo not shown) [Compound I-32] | true |

====

Reported Remaining Percentage (%) 60 min by item:
- protocol-notes: Liver microsomes stability, rat
- measurement-context: Rat, With NADPH, 60 min

| molecule | Remaining Percentage (%) 60 min |
| --- | --- |
| [2H]C([2H])N1CCC(c2c[nH]c3cccc(OCc4ccccc4)c23)C1 (single isomer, unassigned) | 23.82 |
| [2H]C1([2H])CC(c2c[nH]c3cccc(OCc4ccccc4)c23)C([2H])([2H])N1 (stereo not shown) | 64.09 |
| [2H]C([2H])N1CCC(c2c[nH]c3cccc(O)c23)C1 (stereo not shown) | 98.37 |
| [2H]C1([2H])CC(c2c[nH]c3cccc(O)c23)C([2H])([2H])N1 (stereo not shown) | 70.49 |
| [2H]C1([2H])CC(c2c[nH]c3cccc(O)c23)C([2H])([2H])N1C (stereo not shown) | 51.06 |
| [2H]C1([2H])CC(c2c[nH]c3cccc(OCc4ccccc4)c23)C([2H])([2H])N1C (single isomer, unassigned) | 43.53 |
| CN(C)CCc1c[nH]c2cccc(O)c12 [Psilocin, 4-hydroxy-N,N-dimethyltryptamine, reference compound] | 62.68 |

====

- protocol-notes: Liver microsomes stability, human
- measurement-context: Human liver microsomes, with NADPH
- Experimental: The objective of this study was to estimate in vitro metabolic stability of 1-12 in pooled human and male mouse liver microsomes. The concentrations of parent compounds in reaction systems were evaluated by LC-MS/MS for estimating the stability in pooled human and male mouse liver microsomes. The in vitro intrinsic clearances of test compounds were determined as well. […] All calculations were carried out using Microsoft Excel. Peak areas were determined from extracted ion chromatograms. […]
Each record here notes measured Predicted hepatic CL.

| compound | Predicted hepatic CL |
| --- | --- |
| [2H]C1([2H])CC(c2c[nH]c3cccc(OCc4ccccc4)c23)C([2H])([2H])N1 (stereo not shown) [Compound I-35] | 0.00 mL/min/kg |
| [2H]C([2H])N1CCC(c2c[nH]c3cccc(OCc4ccccc4)c23)C1 (single isomer, unassigned) [Compound I-36] | 12.51 mL/min/kg |
| [2H]C1([2H])CC(c2c[nH]c3cccc(OCc4ccccc4)c23)C([2H])([2H])N1C (single isomer, unassigned) [Compound I-37] | 9.50 mL/min/kg |
| [2H]C1([2H])CC(c2c[nH]c3cccc(O)c23)C([2H])([2H])N1 (stereo not shown) [Compound I-33] | 1.24 mL/min/kg |
| CN(C)CCc1c[nH]c2cccc(O)c12 [Psilocin, 4-hydroxy-N,N-dimethyltryptamine, reference compound] | 8.64 mL/min/kg |
| [2H]C([2H])N1CCC(c2c[nH]c3cccc(O)c23)C1 (stereo not shown) [Compound I-32] | 3.99 mL/min/kg |
| [2H]C1([2H])CC(c2c[nH]c3cccc(O)c23)C([2H])([2H])N1C (stereo not shown) [Compound I-34] | 4.02 mL/min/kg |

====

- protocol-notes: Liver microsomes stability, rat
- measurement-context: Rat, Without NADPH, 60 min
- Description: The objective of this study was to estimate in vitro metabolic stability of 1-12 in pooled human and male mouse liver microsomes. The concentrations of parent compounds in reaction systems were evaluated by LC-MS/MS for estimating the stability in pooled human and male mouse liver microsomes. The in vitro intrinsic clearances of test compounds were determined as well. […] All calculations were carried out using Microsoft Excel. Peak areas were determined from extracted ion chromatograms. […]
The following molecules are shown together with reported Remaining Percentage (%) 60 min values.
test-readout: Remaining Percentage (%) 60 min

| molecule | test-readout | measured-number |
| --- | --- | --- |
| [2H]C1([2H])CC(c2c[nH]c3cccc(OCc4ccccc4)c23)C([2H])([2H])N1 (stereo not shown) [Compound I-35] | Remaining Percentage (%) 60 min | 103.32 |
| CN(C)CCc1c[nH]c2cccc(O)c12 [Psilocin, 4-hydroxy-N,N-dimethyltryptamine, reference compound] | Remaining Percentage (%) 60 min | 96.98 |
| [2H]C1([2H])CC(c2c[nH]c3cccc(O)c23)C([2H])([2H])N1C (stereo not shown) [Compound I-34] | Remaining Percentage (%) 60 min | 85.53 |
| [2H]C1([2H])CC(c2c[nH]c3cccc(O)c23)C([2H])([2H])N1 (stereo not shown) [Compound I-33] | Remaining Percentage (%) 60 min | 105.30 |
| [2H]C([2H])N1CCC(c2c[nH]c3cccc(OCc4ccccc4)c23)C1 (single isomer, unassigned) [Compound I-36] | Remaining Percentage (%) 60 min | 95.23 |
| [2H]C1([2H])CC(c2c[nH]c3cccc(OCc4ccccc4)c23)C([2H])([2H])N1C (single isomer, unassigned) [Compound I-37] | Remaining Percentage (%) 60 min | 101.84 |
| [2H]C([2H])N1CCC(c2c[nH]c3cccc(O)c23)C1 (stereo not shown) [Compound I-32] | Remaining Percentage (%) 60 min | 92.79 |

Data origin: patent US20240051978A1
